reported_property: melting point

Known results for compounds:
[
  {
    "compound": "O=C(CNS(=O)(=O)c1ccc2ccccc2c1)NCC(NC(=O)C1CCN(c2ccncc2)CC1)C(=O)C1CCCCN1 (configuration not stated)",
    "melting point": "200 to 202 °C"
  },
  {
    "compound": "NC(N)=Nc1nc(-c2csc(CNC(=O)CSCc3ccco3)n2)cs1",
    "melting point": "204 °C"
  },
  {
    "compound": "CCOC(=O)c1ccc(CCNc2ncnc(CC)c2Cl)cc1",
    "melting point": "134 to 135 °C"
  }
]

I'd like to know its melting point. The compound in question is Cc1nnc(-c2ccc3occ(-c4ccc(C(=O)O)c(F)c4)c3c2)o1
282 to 283 °C

// next record O=C(O)CC1c2ccccc2CCc2ccccc21
163 to 165 °C

// next record CCN1c2ncc(CCc3ccccc3)cc2C(=O)Nc2c(C)ccnc21
174 to 175 °C
